# assayRemarks: In vitro enzyme assay to detect hydrolysis of chlorophenol red-beta-D-[…] directly proportional to the number of Toxoplasma stably expressing beta-galactosidase
# Format: functional, organism-based, Toxoplasma gondii
# Set-up: scale not given: in the data most compounds retested in dose-response had high values
# testConditions: 10 µM
In all, about 85,000 compounds went through this assay and about 440 (0.52%) showed an effect of 50% or more. What follows is part of a selection rich in strong results, with near analogues and random picks from the rest.
Short version: Percent Effect at least 40% is 1 (yes), less is 0 (no).

INSERT INTO measurements (compound, assignedcategory) VALUES
  ('CCCn1ncc(-c2ccnc(NC3CCSC3)n2)c1C (stereo unspecified)', '0 (no)'),
  ('COc1ccc(C(=O)NCCCOC(C)c2ccccc2)c(OC)c1 (stereo unspecified)', '1 (yes)'),
  ('CCCn1ncc(-c2ccnc(NC3CC(C)(C)NC(C)(C)C3)n2)c1C', '1 (yes)'),
  ('O=C(c1ccc2c(c1)OCCCO2)N1CCCC(n2cccn2)C1 (stereo unspecified)', '1 (yes)'),
  ('O=C(c1ccc2c(c1)OCCCO2)N1CCCC(n2ccnc2)C1 (stereo unspecified)', '0 (no)');

---

# assayRemarks: In vitro enzyme assay to detect hydrolysis of chlorophenol red-beta-D-[…] directly proportional to the number of Toxoplasma stably expressing beta-galactosidase
# Assay type: functional, organism-based, Toxoplasma gondii
# Design: scale not given: in the data most compounds retested in dose-response had high values
# testConditions: 50 µM
In all, about 85,000 compounds went through this assay and about 440 (0.52%) showed an effect of 50% or more. The list comes from a sample in which strong results are over-represented; it also holds close analogues and randomly drawn compounds.
Reported values of Percent Effect for individual entries
endpoint: Percent Effect (%)

INSERT INTO results (molecule, assayvalue) VALUES
  ('Cc1cncc(C(=O)N2CCCC2C(C)(C)O)c1 (configuration not stated)', 98.37),
  ('O=C1CNCN1Cc1ccccc1', 2.533),
  ('OC1CCCN(CCOc2ccccc2)C1 (configuration not stated)', 1.087),
  ('CCC(N)(CC)CNS(=O)(=O)c1ccc2c(c1)CCO2', -2.355),
  ('Cc1cc(C)nc(NC(=O)c2ccncc2)c1', 31.27),
  ('Cc1ccc(S(=O)(=O)N2CCNC(=O)C2)cc1C(N)=O', 3.593),
  ('CN(C)C(=O)NCCNc1cccc(Br)c1', -13.02),
  ('c1ccc(Nc2nccs2)nc1', -28.74),
  ('COCCCC1CCNCC1', 4.614),
  ('CC(NC(=O)c1ccncc1F)C(C)(C)CN(C)C (configuration not stated)', -0.7264),
  ('CC(Cc1ccco1)NS(=O)(=O)N1CCOCC1 (configuration not stated)', 99.87),
  ('CCCNC(=O)CCNC(=O)Nc1cc(C)cc(C)n1', 12.25),
  ('CCCn1nc(C)cc1NC(=O)N1CCCC(C#N)C1 (configuration not stated)', -0.4936),
  ('CC(C)(CC1CCCNC1)C(N)=O (configuration not stated)', 7.36),
  ('CCS(=O)(=O)c1cccc(CN)c1', 21.69),
  ('Cc1ccc(OCCN2CCOCC2)cc1', -4.655),
  ('CC(NC(=O)c1ccoc1)C(=O)Nc1nccs1 (configuration not stated)', -8.907),
  ('CN(C)S(=O)(=O)NCC(O)c1cccc(C(F)(F)F)c1 (configuration not stated)', 2.973),
  ('NCc1ccc(-n2cc(Cl)cn2)cc1', -34.41),
  ('NCc1ccc(CO)cc1', 0.7244),
  ('CCNC(=O)CNc1nccc(OC)n1', 5.07),
  ('CCn1nc(C)cc1C(=O)N1CCNC(=O)C1(C)C', 1.148);
